- measuredTarget: AR (Homo sapiens)
- Construct: endogenous in cells; host or cells: VCaP cells
- Sequence (P10275 1-920): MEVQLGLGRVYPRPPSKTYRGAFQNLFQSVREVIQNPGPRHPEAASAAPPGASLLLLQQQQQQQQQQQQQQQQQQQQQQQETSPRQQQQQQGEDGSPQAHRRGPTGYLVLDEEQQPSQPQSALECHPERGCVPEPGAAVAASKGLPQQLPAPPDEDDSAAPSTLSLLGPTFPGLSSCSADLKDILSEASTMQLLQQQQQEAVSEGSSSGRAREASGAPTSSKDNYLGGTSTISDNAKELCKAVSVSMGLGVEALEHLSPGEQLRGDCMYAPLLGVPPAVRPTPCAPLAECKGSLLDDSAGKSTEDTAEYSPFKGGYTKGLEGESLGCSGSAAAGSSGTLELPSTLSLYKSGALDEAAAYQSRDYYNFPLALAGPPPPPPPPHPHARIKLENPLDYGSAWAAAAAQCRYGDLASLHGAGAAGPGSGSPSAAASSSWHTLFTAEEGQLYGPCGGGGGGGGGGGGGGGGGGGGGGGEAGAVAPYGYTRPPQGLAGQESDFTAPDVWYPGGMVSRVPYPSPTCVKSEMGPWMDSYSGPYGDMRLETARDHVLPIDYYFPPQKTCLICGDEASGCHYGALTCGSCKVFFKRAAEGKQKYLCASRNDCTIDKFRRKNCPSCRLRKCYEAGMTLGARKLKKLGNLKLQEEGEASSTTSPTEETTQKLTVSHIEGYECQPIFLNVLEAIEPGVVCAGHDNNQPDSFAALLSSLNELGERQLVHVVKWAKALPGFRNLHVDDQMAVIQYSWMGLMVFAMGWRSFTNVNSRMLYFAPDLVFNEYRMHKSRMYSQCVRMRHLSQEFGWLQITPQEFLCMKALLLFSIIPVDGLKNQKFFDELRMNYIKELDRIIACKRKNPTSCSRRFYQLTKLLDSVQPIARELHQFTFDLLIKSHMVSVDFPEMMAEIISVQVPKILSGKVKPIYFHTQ
- assayInfo: VCAP AR Degradation Assay
- Assay type: cell-based
- recordedConditions: VCaP cells, 24 h, AR ELISA; lowest measured AR level normalized to DMSO control (AR degradation efficiency)
Counter-ions that a name gives are not always drawn.
measuredMetric: Y

Completed entries (count: 4):
C[C@@H]1C[C@H](CCO[C@H]2CC[C@H](N3C(=S)N(c4ccc(C#N)c(C(F)(F)F)c4)C(=O)C3(C)C)CC2)C[C@H](C)N1CC(=O)Nc1cccc2c(N3CCC(=O)NC3=O)nn(C)c12 [Cmpd 14, hydrochloride] :: * (0<Y≤20%)
Cn1nc(N2CCC(=O)NC2=O)c2cccc(NC(=O)CN3CCN(CCC[C@H]4CC[C@H](N5C(=S)N(c6ccc(C#N)c(C(F)(F)F)c6)C(=O)C5(C)C)CC4)C[C@@H]3C(F)(F)F)c21 :: ** (20%<Y≤%)
C[C@@H]1CN(CCO[C@H]2CC[C@H](N3C(=S)N(c4ccc(C#N)c(C(F)(F)F)c4)C(=O)C3(C)C)CC2)C[C@H](C)N1CCOc1cccc2c(N3CCC(=O)NC3=O)nn(C)c12 [Cmpd 15, hydrochloride] :: ** (20%<Y≤%)
Cn1nc(N2CCC(=O)NC2=O)c2cccc(NC(=O)CN3CCN(CCO[C@H]4CC[C@H](N5C(=S)N(c6cnc(C#N)c(C(F)(F)F)c6)C(=O)C5(C)C)CC4)C[C@@H]3C(F)(F)F)c21 :: ** (20%<Y≤%)

# Y of C[C@@H]1C[C@H](OCCC[C@H]2CC[C@H](N3C(=S)N(c4cnc(C#N)c(C(F)(F)F)c4)C(=O)C3(C)C)CC2)C[C@H](C)N1CC(=O)Nc1cccc2c(N3CCC(=O)NC3=O)nn(C)c12 = * (0<Y≤20%)
